# Assay System: Sentrin-specific protease 1 (Homo sapiens) (UniProt Q9P0U3)
# Sequence (Q9P0U3 419-644 limits assumed): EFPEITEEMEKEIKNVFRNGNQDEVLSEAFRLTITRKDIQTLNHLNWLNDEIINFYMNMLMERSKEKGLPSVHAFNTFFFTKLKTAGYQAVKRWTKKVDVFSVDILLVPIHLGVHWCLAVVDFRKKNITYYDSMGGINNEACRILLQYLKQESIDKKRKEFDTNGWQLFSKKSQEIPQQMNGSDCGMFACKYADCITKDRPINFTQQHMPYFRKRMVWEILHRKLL
# Protocol Notes: human SENP1 catalytic domain inhibitors, confirmation, biochemical, kinetic FRET, single concentration (AID 651690);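 further: 0% = DMSO with enzyme and 100% = no enzyme substrate only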
# Run Parameters: recombinant SENP1, CyPet-SUMO1-YPet FRET kinetic cleavage; at 10 µM; hits give high values
The list shows a part of the results.
Quick reference: inhibition of the listed items.
Attribute Measured: inhibition (%)

[[record]]
compound = "COc1cc(/C=C2\\CCCc3c2nc2ccccc2c3C(=O)O)cc(Cl)c1O"
attribute_measured = "inhibition"
test_value = 63.6

[[record]]
compound = "c1coc(-c2nc3nc4ccccc4n3nc2-c2ccco2)c1"
attribute_measured = "inhibition"
test_value = 13.5

[[record]]
compound = "O=C1CC[C@@H]2CC3(C[C@@H]4CCN1[C@H]24)Nc1cc([N+](=O)[O-])ccc1NC3=NC1CCCCC1 (some centres undefined)"
attribute_measured = "inhibition"
test_value = 2.83

[[record]]
compound = "CCCCCn1nnnc1-c1nc2cc3ccccc3cc2[nH]c1=O"
attribute_measured = "inhibition"
test_value = 56.7

